# TARGET_ENTITY: T1, ECF25_1645
# T1 chain: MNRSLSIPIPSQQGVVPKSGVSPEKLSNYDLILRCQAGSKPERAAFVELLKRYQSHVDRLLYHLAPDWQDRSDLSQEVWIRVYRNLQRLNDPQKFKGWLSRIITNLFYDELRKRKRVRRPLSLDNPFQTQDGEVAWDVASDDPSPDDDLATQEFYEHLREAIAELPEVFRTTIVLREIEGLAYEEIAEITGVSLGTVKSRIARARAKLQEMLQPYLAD
This listing pairs binders with measured fold repression.
Provide a numeric answer; units are not to be included.

In the examples that follow, each entry is paired with its recorded fold repression.
AS11_987 (protein) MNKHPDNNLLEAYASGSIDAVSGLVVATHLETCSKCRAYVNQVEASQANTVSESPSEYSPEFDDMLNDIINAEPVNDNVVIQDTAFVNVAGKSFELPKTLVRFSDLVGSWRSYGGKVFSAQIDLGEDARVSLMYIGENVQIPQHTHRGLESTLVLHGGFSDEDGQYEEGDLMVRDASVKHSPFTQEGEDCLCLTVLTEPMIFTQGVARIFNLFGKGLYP ... 2.46
AS20_992 (protein) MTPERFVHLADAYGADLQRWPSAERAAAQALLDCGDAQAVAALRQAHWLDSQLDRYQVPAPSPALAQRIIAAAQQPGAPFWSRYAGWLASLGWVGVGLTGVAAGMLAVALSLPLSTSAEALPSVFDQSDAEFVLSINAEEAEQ ... 1.3
AS25_1645 (protein) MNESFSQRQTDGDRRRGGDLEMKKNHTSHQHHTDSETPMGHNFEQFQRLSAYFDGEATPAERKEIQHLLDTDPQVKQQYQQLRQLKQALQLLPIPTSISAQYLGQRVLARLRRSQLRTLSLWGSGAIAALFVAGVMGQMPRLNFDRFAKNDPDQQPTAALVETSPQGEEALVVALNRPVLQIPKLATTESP ... 33.7

Asked: Recorded fold repression of AS16_3622 (protein) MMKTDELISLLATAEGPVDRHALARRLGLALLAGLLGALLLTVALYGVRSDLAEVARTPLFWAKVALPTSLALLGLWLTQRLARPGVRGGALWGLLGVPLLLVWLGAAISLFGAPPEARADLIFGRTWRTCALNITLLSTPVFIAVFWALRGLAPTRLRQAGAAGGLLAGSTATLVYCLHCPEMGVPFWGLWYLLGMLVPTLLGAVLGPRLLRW , please.
Given back: 1.53

Asked: Recorded fold repression of AS02_915 (protein) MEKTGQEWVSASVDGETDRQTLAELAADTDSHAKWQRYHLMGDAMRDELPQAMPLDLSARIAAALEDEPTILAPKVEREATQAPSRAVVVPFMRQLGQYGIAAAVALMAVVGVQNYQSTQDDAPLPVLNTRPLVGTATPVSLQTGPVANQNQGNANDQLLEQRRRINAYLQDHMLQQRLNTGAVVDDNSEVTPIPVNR , please.
Given back: 1.99

Asked: Recorded fold repression of AS01_3473 (protein) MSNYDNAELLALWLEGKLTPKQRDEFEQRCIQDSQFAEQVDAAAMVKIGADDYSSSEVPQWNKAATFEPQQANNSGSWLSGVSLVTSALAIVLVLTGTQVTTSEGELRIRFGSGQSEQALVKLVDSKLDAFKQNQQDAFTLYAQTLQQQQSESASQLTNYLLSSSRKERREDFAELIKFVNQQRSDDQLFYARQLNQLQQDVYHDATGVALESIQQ , please.
Given back: 0.81

Sourced from paper PMC3817407
